Where do these numbers come from? They come from PubChem BioAssay (NCI).

// reported TGI per item
system: CAKI-1 renal; experiment: NCI tumour cell line growth inhibition, 48 h

Example molecules with recorded TGI:
compoundstring=O=C(O)c1nc(NCc2nc3cc(Cl)ccc3o2)n[nH]1 recordedvalue="> 100 µM"
compoundstring=O=C1c2cccc([N+](=O)[O-])c2C(=O)N1Cc1ccccc1 recordedvalue="> 100 µM"
compoundstring=O=C(O)CCc1nc2c(n1-c1ccccc1)C(=O)c1ccccc1C2=O recordedvalue="> 100 µM"
compoundstring=CN(C)c1cc2ccccc2oc1=O recordedvalue="> 100 µM"

Here is the next item to consider.
Exam item: Which TGI value is on record for Fc1ccc(C(OCCN2CCN(CCCc3ccccc3)CC2)c2ccc(F)cc2)cc1 ?
Marked response: 13.5 µM

###

test system: K-562 leukemia; assay: NCI tumour cell line growth inhibition, 48 h
// reported TGI per item

compound=O=C1/C(=C/c2ccc([N+](=O)[O-])cc2)CN(C(=O)CCN2CCC(=NO)CC2)C/C1=C\c1ccc([N+](=O)[O-])cc1 attributemeasured=TGI recordedvalue="> 60.9 µM"
compound="CCSC1=NC2C(N(CC)C(=O)N2CC)N1/N=C/C=C/c1ccccc1[N+](=O)[O-] (stereo not drawn)" attributemeasured=TGI recordedvalue="> 100 µM"

Here is the next item to consider.
Exam item: Which TGI value is on record for [N-]=[N+]=Nc1c(Cc2ccccc2)c(Cl)nc2ccccc12 ?
Marked response: 83.7 µM

###

test system: OVCAR-5 ovarian; assay: NCI tumour cell line growth inhibition, 48 h; in the data active = GI50 below about 0.43 µM; inactive = the rest
Would you mind answering with one of these outcomes? active, inactive

compound="CC1=C([Se]CC(OC(=O)CC[Se]c2ccccc2)C(=O)NC(C)(C)C)C(=O)c2ccccc2C1=O (centres undefined)" group=inactive
compound="O=S(=O)(/N=c1\\scc(-c2ccccc2)n1-c1ccccc1)c1ccc(N2N=C3c4ccccc4CC3C2c2ccc(Cl)cc2)cc1 (centres undefined)" group=inactive
compound=CCc1c2c(nc3ccc(OCc4ccc(B(O)O)cc4)cc13)-c1cc3c(c(=O)n1C2)COC(=O)[C@]3(O)CC group=active

Now for a further compound.
Exam item: What classification did O=S(=O)(Nc1ccc(Br)cc1)c1ccc(-c2cnc(C3CC3)o2)cc1 end up with in this test?
Marked response: inactive

###

tested on: HCC-2998 colon; test: NCI tumour cell line growth inhibition, 48 h
attributeMeasured: TGI

compound="C[C@@]1(O)C2CC3CC1(c1ccccc1)CC(/C3=N/O)/C2=N\\O (stereo partly specified)" attributemeasured=TGI recordedvalue="> 100 µM"

Here is the next item to consider.
Exam item: Which TGI value is on record for CN(C(=O)/C=C/c1ccccc1)C1C2CN3CCC(O2)C13 (stereo unspecified) ?
Marked response: > 100 µM

###

test system: BT-549 breast; test: NCI tumour cell line growth inhibition, 48 h
// reported TGI per item

molecule="CN(C)CC(O)c1ccc(Cl)c2ccccc12 (configuration not stated)" recordedvalue="> 100 µM"

Exam item: Observed TGI on BT-549 breast for C1CSCCCSCCCSCCCSCCCSCCCSCCCSCCCSC1 , please.
Marked response: > 100 µM

Exam item: And N=C1C(O)C2(I)c3ccccc3N3C(=N)C(O)C4c5ccccc5N1C4C32 (configuration not stated) ?
Marked response: > 100 µM

Exam item: And COc1ccc(N2CC(=O)N(C(=O)COc3ccc(OCC(=O)N4C(=O)CN(c5ccc(OC)cc5)C4=S)cc3)C2=S)cc1 ?
Marked response: > 100 µM
